Multi-source literature compilation: pKi on Fatty-acid amide hydrolase 1 (Rattus norvegicus, UniProt P97612).
# Target Desc: Fatty-acid amide hydrolase 1 (Rattus norvegicus, UniProt P97612)
# Sequence (P97612 whole entry): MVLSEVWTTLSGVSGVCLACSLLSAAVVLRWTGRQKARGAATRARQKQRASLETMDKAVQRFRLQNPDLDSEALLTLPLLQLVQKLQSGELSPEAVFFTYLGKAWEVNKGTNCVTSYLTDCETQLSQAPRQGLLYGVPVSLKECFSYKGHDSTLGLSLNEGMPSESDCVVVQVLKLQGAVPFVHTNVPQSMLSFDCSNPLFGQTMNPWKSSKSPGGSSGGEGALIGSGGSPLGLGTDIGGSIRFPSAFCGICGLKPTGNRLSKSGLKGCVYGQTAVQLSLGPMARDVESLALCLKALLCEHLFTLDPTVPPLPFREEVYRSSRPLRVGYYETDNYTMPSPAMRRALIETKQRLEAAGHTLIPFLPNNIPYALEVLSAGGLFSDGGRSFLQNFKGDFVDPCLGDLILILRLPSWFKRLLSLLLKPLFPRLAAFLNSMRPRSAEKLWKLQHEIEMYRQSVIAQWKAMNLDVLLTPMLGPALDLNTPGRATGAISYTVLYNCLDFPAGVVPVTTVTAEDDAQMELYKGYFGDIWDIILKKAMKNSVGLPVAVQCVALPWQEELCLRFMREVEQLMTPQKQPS
pKi: −log10 of the molar value.
Parameter Measured: pKi

>>> print(df.to_string())
                                    compound  comparison_sign  measured_result
 0  [O-][S+](CCCCCc1ccccc1)c1nnc(-c2ccccn2)o1 (stereo not given)                =             5.31
 1  O=S(=O)(CCCCCCc1ccccc1)c1ncc(-c2ccco2)o1                =             4.40
 2  CCCCCCCCCC/C=C\CCCCCCC(=O)c1ncc(-c2cccnn2)o1                =             7.85
 3           O=C(CCCCCc1ccccc1)c1nc2ccccc2o1                =             6.66
 4         c1ccc(CCCCSc2nnc(-c3ccccn3)o2)cc1                =             3.14
 5          CCCCCCCC/C=C\CCCCCCCC(=O)c1ncco1                =             7.77
 6       c1ccc(CCCCCCSc2ncc(-c3ccccn3)o2)cc1                =             3.96
 7         CCCCCCCC/C=C\CCCCCCCC(=O)c1nnnn1C                =             5.43
 8                 CCCCCCCC(=O)c1nc2ncccc2o1                =             9.16
 9        c1ccc(CCCCCCSc2ncc(-c3ccco3)o2)cc1                =             3.92
10       c1ccc(CCCCCCSc2nnc(-c3ccccn3)o2)cc1                =             3.07
11     CN(C)C(=O)n1nnnc1Cc1ccc(-c2ccccc2)cc1                =             7.92
12          O=C(CCCCCCc1ccccc1)c1nc2ncccc2o1                =            10.55
13  COc1ccnc(-c2cnc(C(=O)CCCCCCc3ccccc3)o2)c1                =             9.10
14                CCCCCCCCCCCCCC(=O)C(F)(F)F                =             6.31
15             O=C(CCCc1ccccc1)c1nc2ncccc2o1                =             8.16
16    CCCCCCCC/C=C\CCCCCCCSc1ncc(-c2ccco2)o1                =             3.74
17      CCc1cc2cc3ccccc3cc2cc1CC(=O)C(F)(F)F                <             4.00
18        CCCCc1cc2ccccc2cc1CCCC(=O)C(F)(F)F                =             5.36
19                CCCCCCCC/C=C\CCCCCCCC(C)=O                <             4.00
